Source of measurements: ChEMBL document CHEMBL1201862

Test system: RXF 393
measurement_notes: NCI tumour cell line growth inhibition, 48 h
Calls of active or inactive are those of the source. No stated cut-off is given here; in the data, active = GI50 up to about 1.1 µM and inactive = higher. Square brackets hold non-standard residues; d marks the D form. Peptide text beside a SMILES is read from it. * marks the point of attachment. X26 = COC1=CC(=O)N(C(=O)[C@@H](O*)C(C)C)[C@H]1Cc1ccccc1; NMeV = CN[C@H](C(=O)O)C(C)C; Hexanoyl = CCCCCC(=O)*
Answer with one of the outcomes given here: active, inactive

[Q] Could you kindly confirm the outcome this assay logged for Cc1c2cc[n+](C)cc2c(COC2OC(CO)C(O)C2O)c2c3ccccc3n(C)c12 (stereo not given) ?
[A] inactive

[Q] How did this test come out for CC1=N[C@@](C)(C2CC3C=CC2C3=O)COC1=O (stereo not given in full) ?
[A] inactive

[Q] Dear all, I need the recorded test outcome for N#Cc1cc(-c2nc3ccc(F)cc3s2)ccc1N , thank you.
[A] inactive

[Q] What did the test return for Cc1ccc(S(=O)(=O)N/N=C2\C=CC3(CC2)C(=O)N(I)c2ccccc23)cc1 (stereo not given) ?
[A] inactive

[Q] So what was the verdict on [O-][n+]1c2ccccc2[n+]([O-])c2cc(Br)ccc21 in this test?
[A] inactive

[Q] Look up the recorded call for COc1ccc(CCN2CCOCC2)cc1 in this test.
[A] inactive

[Q] Assay outcome for O=C(Nc1ccc(Cl)cc1Cl)C(=O)C(C(=O)c1ccncc1)C1OC(=O)c2ccccc21 (stereo not given) : what was it?
[A] inactive

[Q] // outcome(item) with item = COc1ccc(-c2c(-c3ccc(OC)cc3)n3c(=O)n(C)c(=O)n23)cc1
[A] inactive

[Q] // param item: CC1CCOc2ccc(cc2)/C=N\c2ccc(cc2)CCc2ccc(cc2)/N=C\c2ccc(cc2)OCC1 ; yields the recorded call
[A] inactive

[Q] Given N#CCC(=O)N1CCCOCCC1 , state the outcome it received in this test.
[A] inactive

[Q] Status in this test for OCC1OC(n2cnc3c(Cl)nc(Nc4ccc(Cl)c(Cl)c4)nc32)CC1O (stereo not given) ?
[A] inactive

[Q] Hi team, can someone confirm the assay call for O=C1CCC2SC1CCC2=O ?
[A] inactive

[Q] // return assay outcome for CCCCCC(=O)N[C@H](C(=O)N[C@H](C(=O)N(C)[C@H](C(=O)N1CCC[C@H]1C(=O)N1CCC[C@H]1C(=O)O[C@H](C(=O)N1C(=O)C=C(OC)[C@@H]1Cc1ccccc1)C(C)C)C(C)C)C(C)C)C(C)C (Hexanoyl-VV[NMeV]PP-X26)
[A] inactive

[Q] For CCOC(=O)NC(=O)c1cn(C2CCCCC2)c(=O)n(C)c1=O , which call appears in the assay record?
[A] inactive

[Q] Identify the outcome logged in this assay for the molecule shown: NC(=O)NC1C(c2ccccc2)=C1c1ccccc1
[A] inactive

[Q] Look up the recorded call for O=C1c2cccnc2-c2nccc3c2c1nc1ccc(Br)cc13 in this test.
[A] active

[Q] Entry COC(=O)c1cc(C#N)[nH]c1-c1ccc(C)s1 : call = ?
[A] inactive

[Q] Answer briefly: the call reported for Nc1nc(Cl)nc2c1ncn2C1CCC(COP(=O)(O)OP(=O)(O)OP(=O)(O)O)O1 (stereo not given) in this assay.
[A] inactive

[Q] GET /call?item= Cc1cccc2sc(NC(=O)c3cc([N+](=O)[O-])ccc3Cl)nc12 returns the recorded outcome of this test.
[A] inactive

[Q] Query: recorded result category for CC(C)(C)C(=C[S+]([O-])/N=C/c1ccccc1)C(C)(C)C (stereo not given) in this test
[A] inactive

[Q] Tell me the recorded outcome of this test for CC(C)c1cc(C(C)C)c(S(=O)(=O)N=[N+]=[N-])c(C(C)C)c1 .
[A] inactive

[Q] Given NC(=O)NNc1nc(-c2ccccc2)cs1 , state the outcome it received in this test.
[A] inactive

[Q] Any idea what this test logged for CC(C)(C)N1C=[N+](C(C)(C)C)CC1 ?
[A] inactive

[Q] GET /call?item= CN(C)c1cc[n+](-c2nc([N-]C(=O)C(F)(F)F)nc3c2ncn3C2CC(O)C(CO)O2)cc1 (stereo not given) returns the recorded outcome of this test.
[A] inactive

[Q] Status in this test for CC(C)(CO)CNc1nc(N)nc(Cl)c1N ?
[A] inactive

[Q] Dear all, I need the recorded test outcome for C=C1C(=O)OC2C1C(OC(=O)/C(C)=C/C)CC1(C)C(=O)CCC(=C)C21 (stereo not given) , thank you.
[A] inactive

[Q] Identify the outcome logged in this assay for the molecule shown: COc1cc2c3c(c1)CCCN3CCC2
[A] inactive

[Q] What is the recorded call for this molecule in the test? Cn1c(=O)nc2n(-c3ccc(Cl)c(C(F)(F)F)c3)c3ccccc3nc-2c1=O
[A] inactive

[Q] So what was the verdict on COC(=O)c1ccc(Cc2ccc(C(=O)OC)o2)o1 in this test?
[A] inactive

[Q] Please let me know the test result on file for COc1ccc(N)c(C(=O)CCNC(C)=O)c1 [KINURENAMINE] .
[A] inactive

[Q] Please indicate how the test categorized COC(=O)C(=O)C(C(=O)C1=NS(=O)(=O)c2cc(S(N)(=O)=O)c(Cl)cc2N1)c1nc2ccc(C(=O)c3ccccc3)cc2nc1O (stereo not given) .
[A] inactive

[Q] Could you check what this test reported for Nc1nc2c(nnn2C2C=C(CO)C(O)C2O)c(=O)[nH]1 (stereo not given) ?
[A] inactive

[Q] Test call, this molecule: N#C/C(=C/NC(=S)c1ccncc1)C(N)=O
[A] inactive

[Q] // param item: C=CN1CCN(c2ccccc2)P1(=O)Oc1ccccc1 (stereo not given) ; yields the recorded call
[A] inactive

[Q] Returns: the outcome recorded for Clc1cc(OCc2nn3c(Cc4ccccc4)nnc3s2)ccc1OCc1nn2c(Cc3ccccc3)nnc2s1 in this assay.
[A] inactive

[Q] Call for entry Cc1ccc(S(=O)(=O)NC(=O)NC(Cc2c[nH]c3ccccc23)C(=O)O)cc1 (stereo not given) :
[A] inactive

[Q] Look up the recorded call for Nc1nncc2c1ccn2C1OC(CO)C(O)C1O (stereo not given) in this test.
[A] inactive

[Q] I would be grateful if you could indicate the recorded call for S=c1[nH]c(Cl)cc2nc(Cl)cn12 .
[A] inactive

[Q] Please let me know the test result on file for Cc1cc(C)cc(Nc2cc(O)nc(O)n2)c1 .
[A] inactive

[Q] So what was the verdict on CC(C)OP(=O)(OC(C)C)C(C(C)C)N(C)/C(N)=N\C1=NC(C(F)(F)F)(C(F)(F)F)N=C(C(C(F)(F)F)C(F)(F)F)O1 (stereo not given) in this test?
[A] inactive
